Data provenance is patent US20260049071A1.

- measuredOn: KDR (VEGFR2) (Homo sapiens (Human), UniProt P35968)
- Sequence (P35968 790-1356): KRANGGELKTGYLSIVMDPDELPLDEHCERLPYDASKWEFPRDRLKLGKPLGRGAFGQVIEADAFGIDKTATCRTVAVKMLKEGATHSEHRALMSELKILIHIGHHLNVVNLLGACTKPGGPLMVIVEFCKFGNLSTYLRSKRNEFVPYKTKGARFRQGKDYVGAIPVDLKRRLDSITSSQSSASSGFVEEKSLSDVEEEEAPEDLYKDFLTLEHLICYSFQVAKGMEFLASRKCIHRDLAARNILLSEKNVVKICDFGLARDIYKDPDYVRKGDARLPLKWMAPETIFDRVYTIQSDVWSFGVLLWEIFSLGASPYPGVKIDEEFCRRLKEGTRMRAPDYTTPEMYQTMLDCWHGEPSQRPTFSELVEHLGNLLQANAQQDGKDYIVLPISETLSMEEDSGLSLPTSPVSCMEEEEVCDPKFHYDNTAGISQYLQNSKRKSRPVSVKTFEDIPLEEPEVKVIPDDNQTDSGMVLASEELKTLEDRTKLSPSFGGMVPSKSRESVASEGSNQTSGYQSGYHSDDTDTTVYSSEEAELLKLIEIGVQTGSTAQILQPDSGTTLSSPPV
- measurementDescription: Kinase inhibition, Mobility Shift Assay (VEGFR2)
- Assay type: biochemical

- compound: "CCN(CC)Cc1ccc(/C=C/c2n[nH]c3cc(Sc4cc(F)ccc4C(=O)NC)ccc23)nc1 [Compound I-92]"
  IC50: "1 to 10 nM"
- compound: "CN(C)Cc1ccc(/C=C/c2n[nH]c3cc(Sc4ccccc4C(=O)NC4CC4)ccc23)nc1 [Compound I-40]"
  IC50: "≤ 1 nM"
- compound: "O=C(NC1CC1)c1ccc(F)cc1Sc1ccc2c(/C=C/c3ccc(CN4CCCC4)cn3)n[nH]c2c1 [Compound I-79]"
  IC50: "≤ 1 nM"
- compound: "CNC(=O)c1ccccc1Sc1ccc2c(/C=C/c3ccc(OCCC4CCN(C)CC4)cn3)n[nH]c2c1 [Compound I-5]"
  IC50: "≤ 1 nM"

###

- measuredOn: EGFR (Homo sapiens (Human))
- Sequence (P00533 25-1210): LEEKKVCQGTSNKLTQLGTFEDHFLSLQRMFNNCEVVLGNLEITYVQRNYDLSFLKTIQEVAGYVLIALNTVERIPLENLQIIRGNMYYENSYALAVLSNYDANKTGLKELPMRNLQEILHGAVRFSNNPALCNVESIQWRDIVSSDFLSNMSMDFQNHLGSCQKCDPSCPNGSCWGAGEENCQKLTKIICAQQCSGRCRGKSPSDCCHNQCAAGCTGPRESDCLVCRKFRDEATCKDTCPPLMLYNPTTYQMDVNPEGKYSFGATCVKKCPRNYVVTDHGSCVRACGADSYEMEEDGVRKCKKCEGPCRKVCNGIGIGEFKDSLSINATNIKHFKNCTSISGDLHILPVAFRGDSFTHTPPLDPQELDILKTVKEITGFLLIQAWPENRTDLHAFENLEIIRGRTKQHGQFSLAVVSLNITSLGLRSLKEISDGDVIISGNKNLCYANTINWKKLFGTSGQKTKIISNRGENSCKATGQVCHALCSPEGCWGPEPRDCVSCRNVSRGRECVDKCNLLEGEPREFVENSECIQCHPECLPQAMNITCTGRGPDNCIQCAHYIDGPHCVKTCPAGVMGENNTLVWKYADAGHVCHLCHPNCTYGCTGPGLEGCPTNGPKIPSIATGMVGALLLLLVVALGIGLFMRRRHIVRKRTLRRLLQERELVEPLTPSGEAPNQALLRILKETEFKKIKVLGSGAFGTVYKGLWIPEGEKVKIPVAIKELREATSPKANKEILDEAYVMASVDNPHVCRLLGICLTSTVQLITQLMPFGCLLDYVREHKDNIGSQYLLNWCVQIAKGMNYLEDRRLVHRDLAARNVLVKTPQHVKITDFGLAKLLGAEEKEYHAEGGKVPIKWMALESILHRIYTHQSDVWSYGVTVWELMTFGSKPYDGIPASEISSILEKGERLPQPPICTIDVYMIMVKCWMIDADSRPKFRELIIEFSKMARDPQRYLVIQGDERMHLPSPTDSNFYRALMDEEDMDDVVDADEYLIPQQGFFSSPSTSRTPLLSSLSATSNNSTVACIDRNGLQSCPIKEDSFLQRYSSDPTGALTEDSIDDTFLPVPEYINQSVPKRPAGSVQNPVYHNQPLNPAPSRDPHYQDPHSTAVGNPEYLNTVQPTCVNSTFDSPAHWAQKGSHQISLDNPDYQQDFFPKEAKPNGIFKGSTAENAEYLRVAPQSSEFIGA
- measurementDescription: Kinase inhibition, Mobility Shift Assay (EGFR)
- Format: biochemical

- querySmiles: "CNC(=O)c1ccccc1Sc1ccc2c(/C=C/c3ccc(O)cn3)n[nH]c2c1"
  IC50: "6000 to 60000 nM"
- querySmiles: "CCN(CC)Cc1ccc(/C=C/c2n[nH]c3cc(Sc4cc(F)ccc4C(=O)NC4CC4)ccc23)nc1"
  IC50: "6000 to 60000 nM"
- querySmiles: "O=C(NC1CC1)c1ccccc1Sc1ccc2c(/C=C/c3cnn(CCN4CCCC4)c3)n[nH]c2c1"
  IC50: "6000 to 60000 nM"
- querySmiles: "O=C(NC1CC1)c1cccc(F)c1Sc1ccc2c(/C=C/c3ccc(CN4CCCC4)cn3)n[nH]c2c1"
  IC50: "6000 to 60000 nM"
- querySmiles: "O=C(NC1CC1)c1cccc(F)c1Sc1ccc2c(/C=C/c3cccc(CCN4CCCC4)n3)n[nH]c2c1"
  IC50: "> 60000 nM"
- querySmiles: "CCNC(=O)c1cccc(F)c1Sc1ccc2c(/C=C/c3cccc(CN4CCCC4)n3)n[nH]c2c1"
  IC50: "6000 to 60000 nM"
- querySmiles: "CNC(=O)c1ccccc1Sc1ccc2c(/C=C/c3ccc(OCCN4CCN(C)CC4)cn3)n[nH]c2c1"
  IC50: "6000 to 60000 nM"
- querySmiles: "CNC(=O)c1cccc(F)c1Sc1ccc2c(/C=C/c3cnn(CCCN4CCCC4)c3)n[nH]c2c1"
  IC50: "600 to 6000 nM"
- querySmiles: "CCNC(=O)c1cccc(F)c1Sc1ccc2c(/C=C/c3cnn(CCCN4CCCC4)c3)n[nH]c2c1"
  IC50: "6000 to 60000 nM"
- querySmiles: "CNC(=O)c1ccccc1Sc1ccc2c(/C=C/c3ccnc(OCCN4CCCC4)c3)n[nH]c2c1"
  IC50: "6000 to 60000 nM"
- querySmiles: "O=C(NC1CC1)c1ccccc1Nc1ccc2c(/C=C/c3ccc(CN4CCCC4)cn3)n[nH]c2c1"
  IC50: "6000 to 60000 nM"
- querySmiles: "CCNC(=O)c1cc(F)ccc1Sc1ccc2c(/C=C/c3cc(CCCN4CCCC4)ccn3)n[nH]c2c1"
  IC50: "> 60000 nM"
- querySmiles: "CNC(=O)c1ccc(F)cc1Sc1ccc2c(/C=C/c3ccc(CN4CCCC4)cn3)n[nH]c2c1"
  IC50: "6000 to 60000 nM"
- querySmiles: "CCN(CC)Cc1ccc(/C=C/c2n[nH]c3cc(Sc4ccccc4C(=O)NCCF)ccc23)nc1"
  IC50: "6000 to 60000 nM"
- querySmiles: "CNC(=O)c1ccccc1Sc1ccn2c(/C=C/c3ccccn3)ncc2c1"
  IC50: "6000 to 60000 nM"

###

- System: melanin
- measurementDescription: Binding capacity of compounds to melanin
- Assay type: in vitro ADME
- measurementSetup: Sepia officinalis (cuttlefish), melanin suspension (1 mg/mL); 1 mg/mL melanin suspension in PBS pH 7.4, 2 μM compound, 2 h at 37° C.; read-out: Fu % (percentage of free drug, not bound to melanin)
- Protocol: Pigmented eye tissues contain melanin in intracellular melanosomes. Drugs bind to melanin to varying degrees, ranging from non-binding to extensive binding. […] First, prepare 1 mg/mL melanin suspension with PBS (pH 7.4). […] Establish an LC-MS/MS method for determining compound concentrations, and calibrate the peak area ratio of analyte/internal standard (Analyte/AIS) in the measured sample by the dilution factor to take it as an alternative concentration for the sample for data processing. […]

- compound: "O=C(NC1CC1)c1ccc(F)cc1Sc1ccc2c(/C=C/c3ccc(CN4CCCC4)cn3)n[nH]c2c1 [Compound I-79]"
  fraction unbound at 2 h, 2 μM: "> 0.05"
- compound: "CCN(CC)Cc1ccc(/C=C/c2n[nH]c3cc(Sc4ccccc4C(=O)NCC(F)F)ccc23)nc1 [Compound I-99]"
  fraction unbound at 2 h, 2 μM: "> 0.05"
- compound: "CN1CCN(c2ccc(/C=C/c3n[nH]c4cc(Sc5ccccc5C(=O)NC5CC5)ccc34)nc2)CC1 [Compound I-38]"
  fraction unbound at 2 h, 2 μM: "0.01 to 0.05"
- compound: "CNC(=O)c1ccccc1Sc1ccc2c(/C=C/c3ccc(OCCN4CCN(C)CC4)cn3)n[nH]c2c1 [Compound I-4]"
  fraction unbound at 2 h, 2 μM: "> 0.05"
- compound: "O=C(NC1CC1)c1ccccc1Nc1ccc2c(/C=C/c3ccc(CN4CCCC4)cn3)n[nH]c2c1 [Compound I-82]"
  fraction unbound at 2 h, 2 μM: "0.01 to 0.05"
- compound: "CCN(CC)Cc1ccc(/C=C/c2n[nH]c3cc(Sc4ccc(F)cc4C(=O)NC4CC4)ccc23)nc1 [Compound I-84]"
  fraction unbound at 2 h, 2 μM: "> 0.05"
- compound: "CNC(=O)c1ccccc1Sc1cnc2c(/C=C/c3ccccn3)n[nH]c2c1 [Compound I-21]"
  fraction unbound at 2 h, 2 μM: "0.01 to 0.05"
- compound: "CCNC(=O)c1ccccc1Sc1ccc2c(/C=C/c3ccc(CN(CC)CC)cn3)n[nH]c2c1 [Compound I-86]"
  fraction unbound at 2 h, 2 μM: "0.01 to 0.05"
- compound: "CNC(=O)c1ccccc1Sc1ccc2c(/C=C/c3ccc(OCCN4CCCC4)cn3)n[nH]c2c1 [Compound I-6]"
  fraction unbound at 2 h, 2 μM: "0.01 to 0.05"
- compound: "CNC(=O)c1ccccc1Sc1ccc2c(C#Cc3ccc(OCCN4CCCC4)cn3)n[nH]c2c1 [Compound I-16]"
  fraction unbound at 2 h, 2 μM: "< 0.01"
- compound: "CNC(=O)c1ccccc1Sc1ccc2c(C#Cc3cc(OCCN4CCCC4)ccn3)n[nH]c2c1 [Compound I-23]"
  fraction unbound at 2 h, 2 μM: "0.01 to 0.05"
- compound: "O=C(NC1CC1)c1cccc(F)c1Sc1ccc2c(/C=C/c3cnn(CCCN4CCCC4)c3)n[nH]c2c1 [Compound I-44]"
  fraction unbound at 2 h, 2 μM: "0.01 to 0.05"
- compound: "CNC(=O)c1ccccc1Sc1ccc2c(/C=C/c3ccc(OCC4CCCN4C)cn3)n[nH]c2c1 (stereo not drawn) [Compound I-2]"
  fraction unbound at 2 h, 2 μM: "0.01 to 0.05"
- compound: "CCNC(=O)c1ccccc1Sc1ccc2c(/C=C/c3ccc(CN4CCCC4)cn3)n[nH]c2c1 [Compound I-73]"
  fraction unbound at 2 h, 2 μM: "0.01 to 0.05"
- compound: "CCN(CC)Cc1ccc(/C=C/c2n[nH]c3cc(Sc4ccccc4C(=O)NC4CC4)ccc23)nc1 [Compound I-78]"
  fraction unbound at 2 h, 2 μM: "0.01 to 0.05"
- compound: "CNC(=O)c1ccc(F)cc1Sc1ccc2c(/C=C/c3ccc(CN4CCCC4)cn3)n[nH]c2c1 [Compound I-94]"
  fraction unbound at 2 h, 2 μM: "0.01 to 0.05"
- compound: "O=C(NC1CC1)c1ccccc1Sc1ccc2c(/C=C/c3ccc(CCN4CCCC4)cn3)n[nH]c2c1 [Compound I-55]"
  fraction unbound at 2 h, 2 μM: "0.01 to 0.05"
- compound: "CNC(=O)c1ccccc1Sc1ccc2c(/C=C/c3ccnc(OCCN4CCCC4)c3)n[nH]c2c1 [Compound I-18]"
  fraction unbound at 2 h, 2 μM: "0.01 to 0.05"
- compound: "CNC(=O)c1cc(F)ccc1Sc1ccc2c(/C=C/c3ccc(OCCN4CCCC4)cn3)n[nH]c2c1 [Compound I-34]"
  fraction unbound at 2 h, 2 μM: "> 0.05"
- compound: "CCN(CC)Cc1ccc(/C=C/c2n[nH]c3cc(Sc4c(F)cccc4C(=O)NC)ccc23)nc1 [Compound I-91]"
  fraction unbound at 2 h, 2 μM: "0.01 to 0.05"
- compound: "CNC(=O)c1cccc(F)c1Sc1ccc2c(/C=C/c3ccc(OCCN4CCCC4)cn3)n[nH]c2c1 [Compound I-33]"
  fraction unbound at 2 h, 2 μM: "> 0.05"
- compound: "CCNC(=O)c1cc(F)ccc1Sc1ccc2c(/C=C/c3ccc(CN4CCCC4)cn3)n[nH]c2c1 [Compound I-97]"
  fraction unbound at 2 h, 2 μM: "0.01 to 0.05"
- compound: "O=C(NC1CC1)c1ccccc1Sc1ccc2c(/C=C/c3cc(CN4CCCC4)ccn3)n[nH]c2c1 [Compound I-115]"
  fraction unbound at 2 h, 2 μM: "0.01 to 0.05"
- compound: "CCNC(=O)c1cccc(F)c1Sc1ccc2c(/C=C/c3cc(CCCN4CCCC4)ccn3)n[nH]c2c1 [Compound I-116]"
  fraction unbound at 2 h, 2 μM: "0.01 to 0.05"
- compound: "CNC(=O)c1ccccc1Sc1ccc2c(/C=C/c3ccn(CCCN4CCCC4)n3)n[nH]c2c1 [Compound I-11]"
  fraction unbound at 2 h, 2 μM: "0.01 to 0.05"
- compound: "CNC(=O)c1ccccc1Sc1ccc2c(/C=C/c3ccc(OC[C@H]4CCN(C)C4)cn3)n[nH]c2c1 [Compound I-37]"
  fraction unbound at 2 h, 2 μM: "0.01 to 0.05"
- compound: "CNC(=O)c1ccccc1Sc1ccc2c(/C=C/c3cccc(OCCN4CCCC4)c3)n[nH]c2c1 [Compound I-15]"
  fraction unbound at 2 h, 2 μM: "0.01 to 0.05"
- compound: "O=C(NC1CC1)c1ccccc1Sc1ccc2c(/C=C/c3ccc(OCCN4CCCCC4)cn3)n[nH]c2c1 [Compound I-53]"
  fraction unbound at 2 h, 2 μM: "> 0.05"
- compound: "CNC(=O)c1ccccc1Sc1ccc2c(/C=C/c3ccc(OCCC4CCN(C)CC4)cn3)n[nH]c2c1 [Compound I-5]"
  fraction unbound at 2 h, 2 μM: "0.01 to 0.05"
- compound: "CNC(=O)c1ccccc1Sc1ccc2c(/C=C/c3ccc(CCN4CCCC4)cn3)n[nH]c2c1 [Compound I-107]"
  fraction unbound at 2 h, 2 μM: "0.01 to 0.05"
